Data provenance is patent US10280159B2.

# System name: human S1PR5 (Homo sapiens, UniProt Q9H228)
# Construct: host or cells: CHO-K1
# Sequence (Q9H228 whole entry): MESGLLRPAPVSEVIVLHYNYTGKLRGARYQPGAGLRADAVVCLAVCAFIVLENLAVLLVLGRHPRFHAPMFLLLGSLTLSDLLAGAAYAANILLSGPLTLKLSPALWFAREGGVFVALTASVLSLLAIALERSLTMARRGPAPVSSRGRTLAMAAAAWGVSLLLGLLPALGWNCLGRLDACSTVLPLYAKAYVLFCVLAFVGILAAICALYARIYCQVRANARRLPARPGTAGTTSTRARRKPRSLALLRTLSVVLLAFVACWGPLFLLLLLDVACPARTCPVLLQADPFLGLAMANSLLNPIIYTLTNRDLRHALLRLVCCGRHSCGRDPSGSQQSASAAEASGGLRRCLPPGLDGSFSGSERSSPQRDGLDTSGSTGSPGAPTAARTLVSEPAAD
# Assay notes: Intracellular Ca2+ release (FLIPR) agonist potency, S1P5
# Format: cell-based
# Reported conditions: recombinant CHO-K1 cells expressing human S1PR5, aequorin, Gq/i5; Calcium 5 FLIPR; read-out: S1P5 EC50 range
EC50 for assorted compounds

Here's what some known entries look like.
In [3]: df
Out[3]:
                                   compound                               system_name  measurement_kind     readout_value
0  O=C(O)C1CN(C2COc3cc(C#Cc4cccc(Cl)c4)ccc3C2)C1 (stereo not drawn) [Compound 40]  human S1PR5 (Homo sapiens, UniProt Q9H228)              EC50      10 to 100 nM
1  O=C(O)CNC1COc2cc(OCCc3c(Cl)cccc3Cl)ccc2C1 (stereo not drawn) [Compound 114]  human S1PR5 (Homo sapiens, UniProt Q9H228)              EC50  1000 to 10000 nM
2  CCc1cccc(Cl)c1COc1ccc2c(c1)OCC(N1CC(C(=O)O)C1)C2 (stereo not drawn) [Compound 23]  human S1PR5 (Homo sapiens, UniProt Q9H228)              EC50           < 10 nM
3  O=C(O)CCNC1CCc2cc(/C=C/c3cccc(Cl)c3)ccc2C1 (stereo not drawn) [Compound 20]  human S1PR5 (Homo sapiens, UniProt Q9H228)              EC50           < 10 nM

Noted for O=C(O)CCNC1CCc2cc(OCc3c(Cl)cccc3Cl)ccc2C1 (stereo not drawn) [Compound 9] : its EC50 reads < 10 nM

Noted for CCc1cccc(Cl)c1COc1ccc2c(c1)CCC(NC1(C(=O)O)CC1)C2 (stereo not drawn) [Compound 5] : its EC50 reads < 10 nM

Noted for CSc1ccc(COc2ccc3c(c2)CCC(OCC(=O)O)C3)cc1 (stereo not drawn) [Compound 201] : its EC50 reads 1000 to 10000 nM

Noted for O=C(O)CNC1CCc2cc(C#Cc3cc(F)cc(F)c3)ccc2C1 (stereo not drawn) [Compound 28] : its EC50 reads < 10 nM

Noted for O=C(O)CCNC1CCc2cc(/C=C/c3c(Cl)cccc3Cl)ccc2C1 (stereo not drawn) [Compound 18] : its EC50 reads < 10 nM
